Target: CCR1 (Homo sapiens, UniProt P32246)
Sequence (P32246 whole entry): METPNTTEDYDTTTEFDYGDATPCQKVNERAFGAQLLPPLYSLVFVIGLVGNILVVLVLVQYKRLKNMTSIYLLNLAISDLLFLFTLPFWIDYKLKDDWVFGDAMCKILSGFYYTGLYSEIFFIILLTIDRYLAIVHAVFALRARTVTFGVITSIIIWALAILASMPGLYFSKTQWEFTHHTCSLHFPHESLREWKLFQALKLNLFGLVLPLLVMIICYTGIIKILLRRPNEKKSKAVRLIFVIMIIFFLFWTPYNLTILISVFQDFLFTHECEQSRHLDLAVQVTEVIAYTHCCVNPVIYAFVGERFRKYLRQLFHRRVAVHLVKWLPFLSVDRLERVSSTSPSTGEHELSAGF
Assay: Method B: calcium flux in CCR1 transfected cells (Calcium 4 dye, […] FDSS6000), block of the CCR1/MIP-1α interaction
Type: cell-based
Conditions: Method B: Calcium 4 dye, MIP-1alpha at EC80
pIC50: −log10 of the molar value.
Reported Property: pIC50

Example cases with answers are listed next.
>>> assay_result("CC[C@H](NC(=O)c1cncc2c1cnn2-c1ccc(F)cc1)c1csc(S(C)(=O)=O)n1")
9.40
>>> assay_result("CC[C@H](NC(=O)c1cncc2c1cnn2-c1ccc(F)cc1)c1ccnc(-c2nnn[nH]2)c1")
8.52
>>> assay_result("CCC[C@@H](NC(=O)c1cncc2c1cnn2-c1ccc(F)cc1)c1ccc(O)c(S(C)(=O)=O)c1")
9.70
>>> assay_result("CC(C)(NC(=O)c1cncc2c1cnn2-c1ccc(F)cc1)c1ccnc(Br)c1")
7.85
>>> assay_result("CC[C@H](NC(=O)c1cncc2c1cnn2-c1ccc(F)cc1)c1cc(S(C)(=O)=O)cs1")
10.00
>>> assay_result("CC(=O)N(C)c1ncc(CNC(=O)c2cncc3c2cnn3-c2ccc(F)cc2)cn1")
7.62
>>> assay_result("CCOC(=O)CS(=O)(=O)c1cc(CNC(=O)c2cncc3c2cnn3-c2ccc(F)cc2)ccn1")
8.40
>>> assay_result("C[C@H](NC(=O)c1cncc2c1cnn2-c1ccc(F)cc1)c1ccnc(S(N)(=O)=O)c1")
8.52

[A] CC[C@H](NC(=O)c1cncc2c1cnn2-c1ccc(F)cc1)c1ccc(S(=O)(=O)NC2CC2)nc1
[B] CS(=O)(=O)c1cc(CNC(=O)c2cncc3c2cnn3-c2ccc(F)cc2)cc(NCC(N)=O)n1
[C] CS(=O)(=O)c1nc(CNC(=O)c2cncc3c2cnn3-c2ccc(F)cc2)cs1
Q. Give the ascending ranking of the items by reported pIC50. A complete answer lists every label in the requested sequence.
A. C, B, A
